Value source: the Immune Epitope Database (IEDB)

Task for the reader: assign each of the following sequences its reported pKd.
Target: HLA-B*44:03
Assay: IEDB peptide-MHC binding, purified MHC/competitive/radioactivity; filed as Kd, often an IC50 or EC50 that approximates it; bounds were set here for any values at or beyond the usual limits of such assays
Conditions: source organism: SARS coronavirus Tor2
One number for each entry, as −log10 of the molar value.

Worked cases, pKd given:
pKd lookup needed for `EELFYSYAT` , thanks.
6.77

pKd lookup needed for `VEFHLDGEVL` , thanks.
6.03

pKd lookup needed for `KEGIVWVAT` , thanks.
4.91

pKd lookup needed for `WEILKFLIT` , thanks.
5.84

---
pKd lookup needed for `PEYFNSVCRL` , thanks.
5.03
